# measured-target: T1, human IL12Rβ2, cell-expressed (human, UniProt Q99665 24-862)
# T1 sequence (looked up): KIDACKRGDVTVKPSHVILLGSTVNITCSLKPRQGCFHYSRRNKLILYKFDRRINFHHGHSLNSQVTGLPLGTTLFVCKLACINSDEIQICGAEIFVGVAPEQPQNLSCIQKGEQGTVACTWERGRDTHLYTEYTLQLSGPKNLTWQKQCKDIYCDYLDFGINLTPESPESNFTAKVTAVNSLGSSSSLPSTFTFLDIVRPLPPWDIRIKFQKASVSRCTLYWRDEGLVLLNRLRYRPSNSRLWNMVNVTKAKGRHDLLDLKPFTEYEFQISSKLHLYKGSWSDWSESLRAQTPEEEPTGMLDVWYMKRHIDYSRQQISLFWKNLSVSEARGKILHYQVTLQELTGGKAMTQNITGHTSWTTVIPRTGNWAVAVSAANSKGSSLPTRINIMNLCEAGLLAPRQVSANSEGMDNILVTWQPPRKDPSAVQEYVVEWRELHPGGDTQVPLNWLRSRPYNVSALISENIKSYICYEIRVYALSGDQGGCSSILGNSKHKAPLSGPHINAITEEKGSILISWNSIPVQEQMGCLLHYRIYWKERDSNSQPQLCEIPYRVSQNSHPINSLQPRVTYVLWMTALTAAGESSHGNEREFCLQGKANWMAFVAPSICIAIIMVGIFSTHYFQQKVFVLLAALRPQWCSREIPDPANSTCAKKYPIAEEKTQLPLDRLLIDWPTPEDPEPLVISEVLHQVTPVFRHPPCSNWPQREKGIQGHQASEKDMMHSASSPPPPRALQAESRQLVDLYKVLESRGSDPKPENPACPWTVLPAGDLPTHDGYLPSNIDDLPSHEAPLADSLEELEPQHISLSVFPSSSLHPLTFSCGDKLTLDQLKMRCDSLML
# experiment-description: cell-based or functional assay
Assign IC50, IFNγ release, PBMC D840 to each entry below.
Quick note: give the figure in nM, leave out the unit.

Query: Request the reported IC50, IFNγ release, PBMC D840 associated with CD4#8-35GS-IL12Rb2#1 (bispecific antibody, defined by its make-up) EVQLVESGGGSVQPGGSLTLSCGTSGRTFNVMGWFRQAPGKEREFVAAVRWSSTGIYYTQYADSVKSRFTISRDNAKNTVYLEMNSLKPEDTAVYYCAADTYNSNPARWDGYDFRGQGTLVTVSSGGGGSGGGGSGGGGSGGGGSGGGGSGGGGSGGGGSEVQLVESGGRLVQAGDSLRLSCAASGRTFISYRMGWFRQAPGKEREFVAALRWSSSNIDYTYYADSVKGRFSISGDYAKNTVYLQMNSLKAEDTAVYYCAASTRWGVMESDTEYTSWGQGTLVTVSS
Response: 1.9

Query: Request the reported IC50, IFNγ release, PBMC D840 associated with CD4#8-35GS-IL12Rb2#2 (bispecific antibody, defined by its make-up) EVQLVESGGGSVQPGGSLTLSCGTSGRTFNVMGWFRQAPGKEREFVAAVRWSSTGIYYTQYADSVKSRFTISRDNAKNTVYLEMNSLKPEDTAVYYCAADTYNSNPARWDGYDFRGQGTLVTVSSGGGGSGGGGSGGGGSGGGGSGGGGSGGGGSGGGGSEVQLVESGGRLVQAGDSLRLSCAASGRTFTSYRMGWFRQAPGKEREFVSALRWSSGNIDYTYYADSVKGRFSISGDYAKNTVYLQMNSLKAEDTAVYYCAASTRWGVMESDTEYTSWGQGTLVTVSS
Response: 2.1

Query: Request the reported IC50, IFNγ release, PBMC D840 associated with IL12Rb2#2-35GS-CD4#8 (bispecific antibody, defined by its make-up) EVQLVESGGRLVQAGDSLRLSCAASGRTFTSYRMGWFRQAPGKEREFVSALRWSSGNIDYTYYADSVKGRFSISGDYAKNTVYLQMNSLKAEDTAVYYCAASTRWGVMESDTEYTSWGQGTLVTVSSGGGGSGGGGSGGGGSGGGGSGGGGSGGGGSGGGGSEVQLVESGGGSVQPGGSLTLSCGTSGRTFNVMGWFRQAPGKEREFVAAVRWSSTGIYYTQYADSVKSRFTISRDNAKNTVYLEMNSLKPEDTAVYYCAADTYNSNPARWDGYDFRGQGTLVTVSS
Response: 1.6
